Source of measurements: ChEMBL document CHEMBL4038311

Experiment: Cytotoxicity against mouse C2C12 cells assessed as cell viability at 20 uM after 24 to 48 hrs by CCK8 assay relative to control
Type: cell-based
Conditions: read-out: Activity
measure: viability at 20 µM (%)
Output spec: scalar in %, unitless text.

So what's the measured viability at 20 µM for this one? C[C@H]1[C@H](C)CC[C@]2(C(=O)O)CC[C@]3(C)C(=CC[C@@H]4[C@@]5(C)Cc6cnn(-c7ccc(C#N)cc7)c6C(C)(C)[C@@H]5CC[C@]43C)[C@H]12
13

* * *

Test system: MCF7
Assay: Anticancer activity against human MCF7 cells assessed as cell viability at 20 uM after 48 hrs by CCK8 assay relative to control
Assay type: functional
Conditions: MCF7, 48 h, read-out: Activity
Doc: threshold 40% (exclusive). Items with viability at 20 µM beneath it return met; others return not met.

Previously resolved entries follow.
# structureSmilesString, label
data = [
    ("C[C@H]1[C@H](C)CC[C@]2(C(=O)O)CC[C@]3(C)C(=CC[C@@H]4[C@@]5(C)Cc6cnn(C)c6C(C)(C)[C@@H]5CC[C@]43C)[C@H]12", "not met"),
    ("C[C@H]1[C@H](C)CC[C@]2(C(=O)O)CC[C@]3(C)C(=CC[C@@H]4[C@@]5(C)Cc6cnn(-c7cccc(C#N)c7)c6C(C)(C)[C@@H]5CC[C@]43C)[C@H]12", "met"),
    ("C[C@H]1[C@H](C)CC[C@]2(C(=O)O)CC[C@]3(C)C(=CC[C@@H]4[C@@]5(C)Cc6cnn(-c7ccccc7)c6C(C)(C)[C@@H]5CC[C@]43C)[C@H]12", "not met"),
    ("C[C@H]1[C@H](C)CC[C@]2(C(=O)O)CC[C@]3(C)C(=CC[C@@H]4[C@@]5(C)Cc6cnn(C7CCCC7)c6C(C)(C)[C@@H]5CC[C@]43C)[C@H]12", "met"),
    ("C[C@H]1[C@H](C)CC[C@]2(C(=O)O)CC[C@]3(C)C(=CC[C@@H]4[C@@]5(C)Cc6cnn(CC7CC7)c6C(C)(C)[C@@H]5CC[C@]43C)[C@H]12", "met"),
    ("C[C@H]1[C@H](C)CC[C@]2(C(=O)O)CC[C@]3(C)C(=CC[C@@H]4[C@@]5(C)Cc6cnn(-c7ccc(F)cc7)c6C(C)(C)[C@@H]5CC[C@]43C)[C@H]12", "met"),
]

Now look at this entry.
viability at 20 µM under 40%? Item: CCOC(=O)Cn1ncc2c1C(C)(C)[C@@H]1CC[C@]3(C)[C@H](CC=C4[C@@H]5[C@@H](C)[C@H](C)CC[C@]5(C(=O)O)CC[C@]43C)[C@@]1(C)C2
met
